Biological target: MAGI2_2, Q86UL8
Sequence (Q86UL8 410-522): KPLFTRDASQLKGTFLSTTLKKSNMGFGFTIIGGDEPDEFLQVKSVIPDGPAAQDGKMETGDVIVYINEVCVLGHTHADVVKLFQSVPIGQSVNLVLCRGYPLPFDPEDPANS
Test: holdup assay
Set-up: key: below the threshold = too weak to quantify, mostly under pKd 3.1 to 4
Conditions: plain residues with an end cap or a label only (N-terminal biotin on a linker: ado-ado)
MEASUREMENT NAME: pKd
Give bare numbers.

Observe how each entry below is paired with its result.
QSGLYESEEL [MYOT, Q9UBF9]	4.08
PPGKHLVTEV [KCNA7, Q96RP8]	4.32
DTKNYKQTSV [CRIPT, Q9P021]	4.55

Dear colleague, could you please provide pKd for the binders listed below?
1. AQRARSPSDV [GPR12, P47775]
2. NTLNRKTTPV [CACNG8, Q8WXS5]
3. ARGPPRESEV [FAM110D, Q8TAY7]
4. KPGKGSETVV [FZD4, Q9ULV1]

1: 3.65; 2: 4.93; 3: 4.56; 4: 5.22

Go through the list and state pKd for each entry.
1. MQHQRTHTRV [ZSCAN30, Q86W11]
2. NTANRRTTPV [CACNG2, Q9Y698]

1: 5.42; 2: 4.98
